Data origin, for the record: paper PMC6477152

response values for the variants below.
B1: FIP200ΔN1115:Luciferase [human] / GST:SINTBADaa5-85 [human] (parent complex)
chain 1: ENYQVGLAELRTLMTIEKDQCISELISRHEEESNILKAELNKVTSLHNQAFEIEKNLKEQIIELQSKLDSELSALERQKDEKITQQEEKYEAIIQNLEKDRQKLVSSQEQDREQLIQKLNCEKDEAIQTALKEFKLEREVVEKELLEKVKHLENQIAKSPAIDSTRGDSSSLVAELQEKLQEEKAKFLEQLEEQEKRKNEEMQNVRTSLIAEQQTNFNTVLTREKMRKENIINDLSDKLKSTMQQQERDKDLIESLSEDRARLLEEKKKLEEEVSKLRSSSFVPSPYVATAPELYGACAPELPGESDRSAVETADEGRVDSAMETSMMSVQENIHMLSEEKQRIMLLERTLQLKEEENKRLNQRLMSQSMSSVSSRHSEKIAIRDFQVGDLVLIILDERHDNYVLFTVSPTLYFLHSESLPALDLKPGEGASGASRRPWVLGKVMEKEYCQAKKAQNRFKVPLGTKFYRVKAVSWNKKV
chain 2: FEDDISILTQEALGPSEVWLDSPGDPSLGGDMCSASHFALITAYGDIKERLGGLERENATLRRRLKVYEIKYPLISDFGEE

Variants of: B1
Experiment: LUMIER assay; HEK293ET cell lysates; read off a plot
recorded_endpoint: response

variant_name: chain 1 A452S
recorded_endpoint: response
measured: ~280 fold binding

variant_name: chain 1 V461S
recorded_endpoint: response
measured: ~6.4 fold binding

variant_name: chain 1 N457S
recorded_endpoint: response
measured: ~7.8 fold binding

variant_name: chain 1 F459S
recorded_endpoint: response
measured: ~6.2 fold binding
